Recorded TGI values for a group of molecules are listed next.
# Test system: UACC-62 melanoma
# Run description: NCI tumour cell line growth inhibition, 48 h

Reference set (2 entries):
CC(=O)/C=C/c1ccc(OCc2ccc(C(C)(C)C)cc2)cc1 ... > 1000 µM
CC1CCC(=O)NCCCCC(=O)N1 (configuration not stated) ... > 100 µM

# evaluate next
Look up TGI for this molecule: C=CCN1CCN([C@H](c2ccc(C(=O)N(CC)CC)cc2)c2cccc(OC)c2)CC1 > 25 µM

* * *

# Tested on: SW-620 colon
# Run description: NCI tumour cell line growth inhibition, 48 h
Recorded TGI values for a group of compounds are listed next.

Reference set (2 entries):
CNC(=O)NCC1OC(n2cnc3c(NC(=O)Nc4ccccc4)ncnc32)C(O[Si](C)(C)C(C)(C)C)C1CC(=O)N(C)OC (stereo not drawn) ... > 100 µM
OC(c1ccoc1)c1cc2ccccc2s1 (stereo not drawn) ... > 10 µM

# evaluate next
Look up TGI for this compound: O=S1(=O)OCCOS(=O)(=O)C1(Br)Cc1ccccc1 > 100 µM
